Tested on: MV4-11
Protocol: Antiproliferative activity against human MC4-11 cells assessed as reduction in cell viability after 5 days by Celltiter-Glo assay
Condition info: MV4-11, 120 h
Observable: pIC50
Give bare numbers, as −log10 of the molar value.

Record CN(C)CCCn1ccc2cc(-c3nc(S(C)(=O)=O)nc4[nH]ccc34)ccc21 / MV4-11, pIC50 recorded as 6.05

###

What log10 IC50 was measured for each of the following?
Measured on: Nucleosome-remodeling factor subunit BPTF (Homo sapiens, UniProt Q12830)
Protocol: Inhibition of N-terminal GST-tagged human BPTF (2914 to 3037 residues) expressed in Escherichia coli BL21-CodonPlus (DE3) cells by HTRF assay
Give log10 of IC50, with IC50 taken in µM.

Take a look at these entries with their results.
INSERT INTO results (compound, quantitative_result) VALUES
  ('CNc1cc(-c2ccc3c(ccn3CCN(C)C)c2)nc(S(C)(=O)=O)n1', -1.43),
  ('CNc1cc(-c2ccc3c(ccn3CCCN(C)C)c2)nc([S+](C)[O-])n1 (configuration not stated)', -1.23),
  ('CCCCNc1cc(-c2ccc3c(ccn3CCCN(C)C)c2)nc(S(C)(=O)=O)n1', -0.94);

For every item in the list below, what is its measured log10 IC50?
1. CNc1cc(-c2ccccc2)nc(S(C)(=O)=O)n1
2. CCCNc1cc(-c2cc(OC)c3c(ccn3CCCN(C)C)c2)nc(S(C)(=O)=O)n1
3. CCNc1cc(-c2ccc3c(ccn3CCCN(C)C)c2)nc(S(C)(=O)=O)n1
4. CCC(C)Nc1cc(-c2ccc3c(ccn3CCCN(C)C)c2)nc(S(C)(=O)=O)n1 (configuration not stated)
5. CNc1cc(-c2cccc3ncccc23)nc(S(C)(=O)=O)n1
6. CNc1cc(-c2ccc3[nH]ccc3c2)nc(S(C)(=O)=O)n1
7. CCCNc1cc(-c2ccc3c(ccn3CCCN(C)C)c2)nc([S+](C)[O-])n1 (configuration not stated)
8. CCCNc1cc(-c2ccc3c(c2)c(C)cn3CCCN(C)C)nc(S(C)(=O)=O)n1

Given back:
[0.89, -1.20, -1.54, -0.54, 0.23, -0.16, -0.84, -1.23]

###

Measured on: Nucleosome-remodeling factor subunit BPTF (Homo sapiens)
Observable: Kd (nM)
One number for each entry, in nM.

For reference, reported Kd for CN(C)CCCOc1ccc(-c2cc(NCCCn3cccn3)nc(S(C)(=O)=O)n2)cc1 stands at 200

###

Measured on: Nucleosome-remodeling factor subunit BPTF (Homo sapiens, UniProt Q12830)
Protocol: Inhibition of N-terminal GST-tagged human BPTF (2914 to 3037 residues) expressed in Escherichia coli BL21-CodonPlus (DE3) cells by HTRF assay
Observable: log10 of IC50 (log10 of the value in nM)
Each number you see is log10 of IC50, and the unit inside the log is nM.

Known log10 of IC50 results, listed for orientation:
INSERT INTO results (smiles_repr, quantitative_result) VALUES
  ('CNc1cc(-c2ccc3c(ccn3CCCN(C)C)c2)nc(S(C)(=O)=O)n1', 1.51),
  ('Cc1cn(CCCN(C)C)c2ccc(-c3nc(S(C)(=O)=O)nc4[nH]ccc34)cc12', 2.20);

Record log10 of IC50 per entry; entries follow.
1. CN(C)CCCn1ccc2cc(-c3cc(N(C)C)nc(S(C)(=O)=O)n3)ccc21
2. CN(C)CCCn1ccc2cc(-c3nc(S(C)(=O)=O)nc4[nH]ccc34)ccc21

Given back:
4.17
1.43

Give log10 of IC50 for each listed item.
1. CCCNc1cc(-c2ccc3c(ccn3CCCN(C)C)c2)nc(S(C)(=O)=O)n1
2. CNc1cc(-c2ccc3ccn(CCCN(C)C)c3c2)nc(S(C)(=O)=O)n1

Given back:
1. 1.20
2. 3.32
